The origin of these recorded values is paper PMC7284125.

# Tested on: S. mansoni schistosomulae
# Protocol Details: Motility assay on schistosomulae (pixel displacement, relative to DMSO control)
# Assay type: cell-based, Schistosoma mansoni
# Study Conditions: schistosomulae, secondary screen, 24h exposure, read at D1, 10 µM
Classification by Fractional motility follows these ranges: bucket 1: < -0.2; bucket 2: ≥ -0.2 and < 4; bucket 3: ≥ 4

Recorded results for 2 molecules are shown here.
{"Molecule": "c1cc(-c2cnn3cc(-c4ccc(N5CCNCC5)cc4)cnc23)c2cccnc2c1 [LDN-212854]", "Category Label": "bucket 3"}
{"Molecule": "CNCc1ccc(-c2cc(-c3nc(-c4ccc(S(=O)(=O)C(C)C)cc4)cnc3N)on2)cc1 [VE-822]", "Category Label": "bucket 1"}

input: Form field 'band' for NS(=O)(=O)C#Cc1ccccc1 [Pifithrin-μ]
output: bucket 2

input: Subsequent entry: Cc1cccc(C(C)c2cnc[nH]2)c1C (stereo not drawn) [Medetomidine]
output: bucket 1

input: Subsequent entry: CN(C)CCCN1c2ccccc2Sc2ccc(Cl)cc21 [Chlorpromazine]
output: bucket 3

input: Subsequent entry: O=C1CCc2ccc(OCCCCN3CCN(c4cccc(Cl)c4Cl)CC3)cc2N1 [Aripiprazole]
output: bucket 2
